molecular target: recombinant human PKM2 (Homo sapiens, UniProt P14618); construct: His (N); purchased R&D Systems; assay: Human PKM2 activation assay (Kinase-Glo Plus luminescent detection of generated ATP); type: biochemical; settings: recombinant human PKM2 activation; 4-parameter logistic fit; read-out: hPKM2 EC50
Sequence (P14618 2-531 limits assumed): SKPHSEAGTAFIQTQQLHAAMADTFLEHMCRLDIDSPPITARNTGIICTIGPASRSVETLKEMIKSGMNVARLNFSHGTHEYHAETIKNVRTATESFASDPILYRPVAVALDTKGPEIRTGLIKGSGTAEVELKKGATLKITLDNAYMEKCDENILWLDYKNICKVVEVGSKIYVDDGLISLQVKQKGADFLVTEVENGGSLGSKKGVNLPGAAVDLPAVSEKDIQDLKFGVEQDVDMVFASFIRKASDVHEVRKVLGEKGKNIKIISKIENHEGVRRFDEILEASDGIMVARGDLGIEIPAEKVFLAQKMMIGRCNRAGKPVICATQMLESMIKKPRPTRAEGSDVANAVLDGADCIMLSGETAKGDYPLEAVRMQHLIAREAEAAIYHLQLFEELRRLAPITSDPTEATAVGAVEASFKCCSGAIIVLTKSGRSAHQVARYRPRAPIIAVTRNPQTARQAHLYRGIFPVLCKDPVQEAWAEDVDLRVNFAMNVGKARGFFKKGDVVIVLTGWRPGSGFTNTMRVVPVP
pEC50: −log10 of the molar value.
Given measured pEC50, output True if it is greater than or equal to 7 and False if not.

Please review the entries below; each comes with its answer.
Compound	Classification
COCC(c1ccccc1)n1ncc2cc(S(=O)(=O)c3ccccc3)ccc2c1=O (centres unmarked)	False
NC(=O)c1nc(Cn2ncc3cc(S(=O)(=O)c4ccccc4)ccc3c2=O)cs1	False
O=c1c2ccc(S(=O)(=O)c3cn[nH]c3)cc2cnn1Cc1cccc(C2CC2)n1	True

Ask: # check: pEC50 of COc1ccc(Cn2ncc3cc([S@@](=N)(=O)c4ccc5c(c4)CCO5)ccc3c2=O)cn1 (single isomer, unassigned) is greater than or equal to 7
Result: True
